# measured target: FGFR4 V550L kinase (Homo sapiens, UniProt P22455, V550L)
# Sequence (P22455 22-802 V550L): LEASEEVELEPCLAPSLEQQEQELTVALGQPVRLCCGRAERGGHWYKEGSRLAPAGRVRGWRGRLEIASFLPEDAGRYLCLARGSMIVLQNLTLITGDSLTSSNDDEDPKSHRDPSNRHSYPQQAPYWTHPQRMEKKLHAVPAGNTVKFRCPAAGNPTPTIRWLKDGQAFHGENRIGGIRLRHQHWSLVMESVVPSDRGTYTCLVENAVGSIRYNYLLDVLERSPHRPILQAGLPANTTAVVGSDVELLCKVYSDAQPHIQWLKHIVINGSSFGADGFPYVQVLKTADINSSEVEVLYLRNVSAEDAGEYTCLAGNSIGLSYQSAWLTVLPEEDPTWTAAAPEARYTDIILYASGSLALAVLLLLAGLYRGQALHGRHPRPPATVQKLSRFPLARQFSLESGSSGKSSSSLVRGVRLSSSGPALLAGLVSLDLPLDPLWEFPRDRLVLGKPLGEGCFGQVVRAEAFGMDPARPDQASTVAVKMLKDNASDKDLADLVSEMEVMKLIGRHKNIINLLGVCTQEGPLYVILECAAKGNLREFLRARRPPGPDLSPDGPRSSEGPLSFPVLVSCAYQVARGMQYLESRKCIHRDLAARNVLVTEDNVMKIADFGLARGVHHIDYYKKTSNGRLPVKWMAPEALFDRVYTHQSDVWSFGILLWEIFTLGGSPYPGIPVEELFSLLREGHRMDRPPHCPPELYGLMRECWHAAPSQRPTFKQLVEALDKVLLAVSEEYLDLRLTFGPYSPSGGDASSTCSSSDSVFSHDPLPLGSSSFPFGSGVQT
# assay summary: Inhibition of FGFR4 V550L mutant kinase activity (ULight-labeled PolyGT, EU665/EU615 reading)
# measurement setup: FGFR4 V550L kinase 1 nM, ATP 10 μM, enzymatic reaction 2 hours
readout type: IC50

Example entries begin here.
{"columns": ["molecule", "IC50"],
 "data": [
  ["C=CC(=O)Nc1cc(N2CCN(CC)CC2)ccc1Nc1ncc(C#N)c(Nc2cc(C(F)(F)F)ccc2OC(C)C)n1", "100 to 1000 nM"],
  ["C=CC(=O)Nc1cc(N2CCC(N3CCOCC3)CC2)c(C)cc1Nc1ncc(C#N)c(Nc2ccccc2OC(C)C)n1", "10 to 50 nM"],
  ["C=CC(=O)Nc1cc(N2CCC(N(C)CCCOC)CC2)ccc1Nc1ncc(C#N)c(Nc2ccccc2OC(C)C)n1", "≤ 10 nM"],
  ["C=CC(=O)Nc1cc(N2CCC(N(C)CCCO)CC2)ccc1Nc1ncc(C#N)c(Nc2ccccc2OC(C)C)n1", "≤ 10 nM"],
  ["C=CC(=O)Nc1cc(N2CCN(CC)CC2)ccc1Nc1ncc(C#N)c(Nc2ccc(O)cc2OC(C)C)n1", "≤ 10 nM"]
]}

For every record below, what is its IC50?
1. C=CC(=O)Nc1cc(N2CCC(N3CCN(S(C)(=O)=O)CC3)CC2)ccc1Nc1ncc(C#N)c(Nc2ccccc2OC(C)C)n1
2. C=CC(=O)Nc1cc(N2CCC(N3CCN(C)C(=O)C3)CC2)ccc1Nc1ncc(C#N)c(Nc2ccccc2OC(C)C)n1
3. C=CC(=O)Nc1cc(N2CCN(C)CC2)ccc1Nc1ncc(C#N)c(Nc2ccccc2OC(C)C)n1
4. C=CC(=O)Nc1cc(N2CCN(CC)CC2)ccc1Nc1ncc(C#N)c(Nc2ccc(C#N)cc2OC(C)C)n1
5. C=CC(=O)Nc1cc(N(C)CCN(C)C)ccc1Nc1ncc(C#N)c(Nc2ccccc2OC(C)C)n1
6. C=CC(=O)Nc1cc(N2CCC(N(C)C3CC3)CC2)ccc1Nc1ncc(C#N)c(Nc2ccccc2OC(C)C)n1
7. C=CC(=O)Nc1cc(N2CCN(C3CCN(C)CC3)CC2)ccc1Nc1ncc(C#N)c(Nc2ccccc2OC(C)C)n1
8. C=CC(=O)Nc1cc(N2CCC(N(C)C3CCOCC3)CC2)ccc1Nc1ncc(C#N)c(Nc2ccccc2OC(C)C)n1

Result:
["10 to 50 nM", "10 to 50 nM", "≤ 10 nM", "10 to 50 nM", "≤ 10 nM", "10 to 50 nM", "≤ 10 nM", "≤ 10 nM"]

For every record below, what is its IC50?
1. C=CC(=O)Nc1cc(N2CCC(N(C)C3COC3)CC2)ccc1Nc1ncc(C#N)c(Nc2ccccc2OC(C)C)n1
2. C=CC(=O)Nc1cc(N2CCC(N3CCC(C)(O)CC3)CC2)ccc1Nc1ncc(C#N)c(Nc2ccccc2OC(C)C)n1
3. C=CC(=O)Nc1cc(N2CCC(N3CCC(F)CC3)CC2)ccc1Nc1ncc(C#N)c(Nc2ccccc2OC(C)C)n1
4. C=CC(=O)Nc1cc(N2CCC(N(C)CCOC)CC2)ccc1Nc1ncc(C#N)c(Nc2ccccc2OC(C)C)n1
5. C=CC(=O)Nc1cc(N2CCC(N(C)C3CCOC3)CC2)ccc1Nc1ncc(C#N)c(Nc2ccccc2OC(C)C)n1 (centres unmarked)
6. C=CC(=O)Nc1cc(N2CCN(CC)CC2)ccc1Nc1ncc(C#N)c(Nc2cc(C)ccc2OC(C)C)n1
7. C=CC(=O)Nc1cc(N2CCN(CC)CC2)c(F)cc1Nc1ncc(C#N)c(Nc2ccccc2OC(C)C)n1
8. C=CC(=O)Nc1cc(N2CCN(C)CC2)c(F)cc1Nc1ncc(C#N)c(Nc2ccccc2OC(C)C)n1

Result:
1: 10 to 50 nM; 2: ≤ 10 nM; 3: 10 to 50 nM; 4: ≤ 10 nM; 5: ≤ 10 nM; 6: 10 to 50 nM; 7: 10 to 50 nM; 8: 10 to 50 nM

Provide each entry's IC50 from the list below.
1. C=CC(=O)Nc1cc(N2CCC(N(C)CCCS(C)(=O)=O)CC2)ccc1Nc1ncc(C#N)c(Nc2ccccc2OC(C)C)n1
2. C=CC(=O)Nc1cc(N2CCC(N3CCN(C)CC3)CC2)c(F)cc1Nc1ncc(C#N)c(Nc2ccccc2OC(C)C)n1

Result:
1. ≤ 10 nM
2. 10 to 50 nM

From: patent US12582654B2
